- System: A498 renal
- TEST_PROTOCOL: NCI-60 one-dose screen, 48 h (100 = growth as untreated, 0 = no growth, -100 = all killed)
- CONDITION_CONTEXT: 10 µM unless noted
Compounds without any hit were thinned out: in the full panel of roughly 83,000, 20% have a hit.
Would you kindly list growth for each of these molecules?
Answers are plain numbers, in %.

In the examples that follow, each entry is paired with its recorded growth.
# growth lookup, item O=C1C(Cl)=C(NCCCN(CCCNC2=C(Cl)C(=O)c3ccccc3C2=O)C2=C(Cl)C(=O)c3ccccc3C2=O)C(=O)c2ccccc21
100

Follow-up item: COc1cc(/C=C/C(=O)/C=C/c2cc3ccc(Cl)cc3[nH]c2=O)ccc1O
78.8

Follow-up item: c1ccc2c3c([nH]c2c1)C(c1ccc(C2NCCc4c2[nH]c2ccccc42)cc1)NCC3 (centres undefined)
116

Follow-up item: COC(=O)/C=C1\SC(=Nc2ccc(F)cc2)N(CCc2c[nH]c3ccccc23)C1=O
110

Follow-up item: COc1ccc2nc(-c3ccc(OC)c(OC)c3)cc(-c3nnc(SCC(=O)Nc4ccc(/C(C)=N\O)cc4)n3-c3ccccc3)c2c1
77.9

Please state growth for every molecule in the list that follows.
1. COc1cc(C)ccc1Oc1nc(Nc2ccc(N3CCOCC3)cc2)ncc1N=Cc1cc(C(F)(F)F)cc(C(F)(F)F)c1
2. Cc1[nH]c(N=Nc2ccccc2)nc1N=Nc1ccccc1
3. C=C1C(=O)O[C@H]2[C@H]1CC/C(COC(=O)CCCCCCCCC(=O)OC/C1=C/CC[C@@]3(C)O[C@H]3[C@H]3OC(=O)C(=C)[C@@H]3CC1)=C\CC[C@@]1(C)O[C@@H]21

1: 58.8; 2: 35; 3: 96.8

# growth lookup, item CN(C)c1ccc(-c2ccc3[nH]c(=O)nc(-c4ccc(F)cc4)c3c2)cn1
18.5
